test system: Chordin-like protein 2 (CHRDL2); test: CHRDL2 small-molecule binders, primary screen, biochemical, small-molecule microarray, 635 nm fluorescence (AID 1126); settings: small-molecule microarray binding, fluorescence 635 nm; higher = more signal;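 also: printed compound slides probed with Chrdl2 protein at 4 µg/mL for 1 h at 4 C; score merges 667 nm emission intensity with signal to noise over three replicate slides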
measure_name: composite z-score
Give bare numbers.

Example results:
INSERT INTO measurements (structure_as_smiles, assay_system, measure_name, measurement) VALUES
  ('CCOC(=O)C=C1C[C@@H](c2cccc([N+](=O)[O-])c2)O[C@@H](c2cccc([N+](=O)[O-])c2)O1', 'Chordin-like protein 2 (CHRDL2)', 'composite z-score', 0.338),
  ('CC(C)N1C(=O)[C@@]2(Cc3ccccc31)c1ccccc1C(=O)N(Cc1ccccc1C(F)(F)F)[C@H]2c1ccc(CO)cc1', 'Chordin-like protein 2 (CHRDL2)', 'composite z-score', 1.14);

From here, focus on the item given below.
Ask: For the compound C=C1C(=O)C=C2CN(C(=O)c3ccccc3)[C@@](Cc3ccc(F)cc3)(C(=O)OC)[C@@H]12 , what composite z-score is on record?
Reply: -0.775
